Ref: patent US11041000B2

Can you tell me half-life at 20 μM for the items I'm about to list?
Experiment: Stability in rat plasma
Assay type: in vitro ADME
Settings: both sexes, SD rat plasma, EDTA, 37° C., read-out: t½: Rat Plasma EDTA (converted)
Numbered stars: 1 amine (or outer) side, 2 acyl side, 3 side chain; on linkers, the order of the positions; unused ones are H or OH. Bridge positions count the residues as written; N and C are the ends. Square brackets hold non-standard residues; d marks the D form. Peptide text beside a SMILES is read from it. X3 = CCc1ccc2c(C[C@H](N[*:1])C(=O)[*:2])c[nH]c2c1; Trp(7-OMe) = COc1cccc2c(C[C@H](N)C(=O)O)c[nH]c12; Trp(7-Me) = Cc1cccc2c(C[C@H](N)C(=O)O)c[nH]c12; 2Nal = N[C@@H](Cc1ccc2ccccc2c1)C(=O)O; AEF = NCCOc1ccc(C[C@H](N)C(=O)O)cc1; Cit = NC(=O)NCCC[C@H](N)C(=O)O; Pen = CC(C)(S)[C@H](N)C(=O)O; αMeK = C[C@](N)(CCCCN)C(=O)O

Ask | Quick one: half-life at 20 μM of CC(=O)NCCCC[C@H](NC(=O)C1(NC(=O)[C@H](Cc2ccc3ccccc3c2)NC(=O)[C@H](Cc2ccc(OCCN)cc2)NC(=O)[C@H]2NC(=O)[C@H](CCC(N)=O)NC(=O)[C@H](Cc3c[nH]c4c(C)cccc34)NC(=O)[C@H]([C@@H](C)O)NC(=O)[C@H](CC(N)=O)NC(=O)[C@@H](NC(C)=O)C(C)(C)SSC2(C)C)CCNCC1)C(=O)N[C@@H](CC(N)=O)C(=O)NCCC(N)=O [compound 275] ?
Reply | > 24 h

Ask | Entry CC(=O)NCCCC[C@@H]1NC(=O)[C@H](Cc2c[nH]c3c(C)cccc23)NC(=O)[C@H]([C@@H](C)O)NC(=O)[C@H](CO)NC(=O)[C@@H](NC(C)=O)C(C)(C)SSC(C)(C)[C@@H](C(=O)N[C@@H](Cc2ccc(OCCN)cc2)C(=O)N[C@@H](Cc2ccc3ccccc3c2)C(=O)N[C@@](C)(CCCCN)C(=O)N[C@@H](CCCCNC(C)=O)C(=O)N[C@@H](CC(N)=O)C(=O)N[C@H](CC(C)C)C(N)=O)NC1=O [compound 334] (Ac-[Pen]ST[Trp(7-Me)]K(Ac)[Pen][AEF][2Nal][αMeK]K(Ac)N[dL]-NH2; disulfide 1-6) has what half-life at 20 μM?
Reply | > 24 h

Ask | Look up half-life at 20 μM for this compound: CC(=O)NCCCC[C@@H]1NC(=O)[C@H](Cc2c(C)[nH]c3ccccc23)NC(=O)[C@H]([C@@H](C)O)NC(=O)[C@H](CC(N)=O)NC(=O)[C@@H](NC(C)=O)C(C)(C)SSC(C)(C)[C@@H](C(=O)N[C@@H](Cc2ccc(OCCN)cc2)C(=O)N[C@@H](Cc2ccc3ccccc3c2)C(=O)N[C@@](C)(CCCCN)C(=O)N[C@@H](CCCCNC(C)=O)C(=O)N[C@@H](CC(N)=O)C(=O)N[C@H](CCCCN)C(N)=O)NC1=O [compound 351]
Reply | > 24 h

Ask | Can you look up the measured half-life at 20 μM of CC(=O)NCCCC[C@H](NC(=O)[C@](C)(CCCCN)NC(=O)[C@H](Cc1ccc2ccccc2c1)NC(=O)[C@H](Cc1ccc(OCCN)cc1)NC(=O)[C@H]1NC(=O)[C@H](CCCCNC(=O)CCN)NC(=O)[C@H](Cc2c[nH]c3c(C)cccc23)NC(=O)[C@H]([C@@H](C)O)NC(=O)[C@H](CC(N)=O)NC(=O)[C@@H](NC(C)=O)C(C)(C)SSC1(C)C)C(=O)N[C@@H](CC(N)=O)C(=O)N[C@H](CC(C)C)C(N)=O [compound 321] for me?
Reply | > 24 h

Ask | half-life at 20 μM lookup needed for CC(=O)NCCCC[C@@H]1NC(=O)[C@H](Cc2c[nH]c3c(C)cccc23)NC(=O)[C@H]([C@@H](C)O)NC(=O)[C@H](CC(C)C)NC(=O)[C@@H](NC(C)=O)C(C)(C)SSC(C)(C)[C@@H](C(=O)N[C@@H](Cc2ccc(OCCN)cc2)C(=O)N[C@@H](Cc2ccc3ccccc3c2)C(=O)N[C@@](C)(CCCCN)C(=O)N[C@@H](CCCCNC(C)=O)C(=O)N[C@@H](CC(N)=O)C(=O)N[C@H](CC(C)C)C(N)=O)NC1=O [compound 332] (Ac-[Pen]LT[Trp(7-Me)]K(Ac)[Pen][AEF][2Nal][αMeK]K(Ac)N[dL]-NH2; disulfide 1-6) , thanks.
Reply | > 24 h

Ask | Need half-life at 20 μM of COc1cccc2c(C[C@@H]3NC(=O)[C@H]([C@@H](C)O)NC(=O)[C@H](CC(N)=O)NC(=O)[C@@H](NC(C)=O)C(C)(C)SSC(C)(C)[C@@H](C(=O)N[C@@H](Cc4ccc(OCCN)cc4)C(=O)N[C@@H](Cc4ccc5ccccc5c4)C(=O)N[C@@](C)(CCCCN)C(=O)N[C@@H](CCCCNC(C)=O)C(=O)N[C@@H](CC(N)=O)C(=O)N[C@H](CCCCN)C(N)=O)NC(=O)[C@H](CCCNC(N)=O)NC3=O)c[nH]c12 [compound 300] (Ac-[Pen]NT[Trp(7-OMe)][Cit][Pen][AEF][2Nal][αMeK]K(Ac)N[dK]-NH2; disulfide 1-6) , thanks.
Reply | > 24 h

Ask | Entry CCc1ccc2c(C[C@@H]3NC(=O)[C@H]([C@@H](C)O)NC(=O)[C@H](CC(N)=O)NC(=O)[C@@H](NC(C)=O)C(C)(C)SSC(C)(C)[C@@H](C(=O)N[C@@H](Cc4ccc(OCCN)cc4)C(=O)N[C@@H](Cc4ccc5ccccc5c4)C(=O)N[C@@](C)(CCCCN)C(=O)N[C@@H](CCCCNC(C)=O)C(=O)N[C@@H](CC(N)=O)C(=O)N[C@H](CCCCN)C(N)=O)NC(=O)[C@H](CCCCNC(C)=O)NC3=O)c[nH]c2c1 [compound 349] (Ac-[Pen]NT[X3]K(Ac)[Pen][AEF][2Nal][αMeK]K(Ac)N[dK]-NH2; disulfide 1-6) has what half-life at 20 μM?
Reply | > 24 h

Ask | Could you share which half-life at 20 μM value was measured for CC(=O)NCCCC[C@@H]1NC(=O)[C@H](Cc2c[nH]c3c(C)cccc23)NC(=O)[C@H]([C@@H](C)O)NC(=O)[C@H](CCCNC(=N)N)NC(=O)[C@@H](NC(C)=O)C(C)(C)SSC(C)(C)[C@@H](C(=O)N[C@@H](Cc2ccc(OCCN)cc2)C(=O)N[C@@H](Cc2ccc3ccccc3c2)C(=O)N[C@@](C)(CCCCN)C(=O)N[C@@H](CCCCNC(C)=O)C(=O)N[C@@H](CC(N)=O)C(=O)N[C@H](CC(C)C)C(N)=O)NC1=O [compound 336] (Ac-[Pen]RT[Trp(7-Me)]K(Ac)[Pen][AEF][2Nal][αMeK]K(Ac)N[dL]-NH2; disulfide 1-6) ?
Reply | > 24 h

Ask | Record request: half-life at 20 μM value, item CC(=O)NCCCC[C@H](NC(=O)[C@](C)(CCCCN)NC(=O)[C@H](Cc1ccc2ccccc2c1)NC(=O)[C@H](Cc1ccc(OCCN)cc1)NC(=O)[C@H]1NC(=O)[C@H](CCCCNC(=O)CC(F)(F)F)NC(=O)[C@H](Cc2c[nH]c3c(C)cccc23)NC(=O)[C@H]([C@@H](C)O)NC(=O)[C@H](CC(N)=O)NC(=O)[C@@H](NC(C)=O)C(C)(C)SSC1(C)C)C(=O)N[C@@H](CC(N)=O)C(=O)N[C@H](CC(C)C)C(N)=O [compound 319]
Reply | > 24 h

Ask | Dear colleague, I am looking for the recorded half-life at 20 μM of the following compound: CC(=O)NCCCC[C@H](NC(=O)[C@](C)(CCCCN)NC(=O)[C@H](Cc1ccc2ccccc2c1)NC(=O)[C@H](Cc1ccc(OCCN)cc1)NC(=O)[C@H]1NC(=O)[C@H](CCCCNC(=O)C2CCCCC2)NC(=O)[C@H](Cc2c[nH]c3c(C)cccc23)NC(=O)[C@H]([C@@H](C)O)NC(=O)[C@H](CC(N)=O)NC(=O)[C@@H](NC(C)=O)C(C)(C)SSC1(C)C)C(=O)N[C@@H](CC(N)=O)C(=O)N[C@H](CC(C)C)C(N)=O [compound 316]
Reply | > 24 h
